Data origin, for the record: PubChem BioAssay (NCI)

- System: NCI-H460 lung
- experiment: NCI-60 one-dose screen, 48 h
- condition.notes: 10 µM unless noted
This is part of a sample that, as a whole, favours compounds with a hit. Of some 83,000 tested, about 20% had one in any assay. The source made the active and inactive calls. The calls were made as follows: active = growth percent below 10; inactive = the rest.
Give your call using only these classes: yes (active), no (inactive)

See these solved cases before continuing.
>>> class_name("COc1ccc(/C(=C/c2cc(OC)c(OC)c(OC)c2)[N+](=O)[O-])cc1")
"no"
>>> class_name("CCNc1cc(S(=O)(=O)O)ccc1C")
"no"
>>> class_name("c1ccc([Se]CCCN2CCN(CCC[Se]c3ccccc3)CC2)cc1")
"no"

q: Which outcome did this test record for the molecule CC(C)NCC(O)COc1ccc(CC(N)=O)cc1 (stereo not given) ?
a: no

q: Which outcome did this test record for the molecule `NC(=O)C1=C[C@H]2[C@H]3C=C[C@@]2(O)C(=O)O[C@@H]3O1` ?
a: no

q: Which outcome did this test record for the molecule `O=C1C(Cl)=C(Nc2cccc3cc4ccccc4nc23)C(=O)c2ccccc21` ?
a: no

q: Which outcome did this test record for the molecule Nc1nc2ccc(CNc3ccc(C(=O)NC(CC(=O)O)C(=O)O)cc3)cc2c(=O)[nH]1 (stereo not given) ?
a: no

q: Which outcome did this test record for the molecule `O=C(Nc1cccc(-n2ccc3c(NC(=O)c4ccccc4)nccc32)c1)c1cc(N2CCOCC2)cc(C(F)(F)F)c1` ?
a: yes

---

- Tested on: TK-10 renal
- experiment: NCI-60 one-dose screen, 48 h
- condition.notes: 10 µM unless noted
- Procedure: Growth inhibition of the TK-10 human tumor cell line is measured as a screen for anti-cancer activity. Cells are grown in 96 well plates and exposed to the test compound for 48 hours. Compounds are tested at a single concentration, which is 10^-5 M for most compounds. The reported endpoint is percent growth (GI% or GIPRCNT), where numbers from 0 - 100% represent growth inhibition, and numbers from -100% - 0 represent cell death. For example, a value of 40 represents 60% growth inhibition. […]
About 83,000 compounds went through this panel and 20% of them were active in at least one assay; those are over-represented in the sample as a whole. Calls of active or inactive are those of the source. How the source made its calls: active means growth percent below 10; inactive means the rest.
Give your call using only these classes: label 1 for active, label 0 for inactive

>>> class_name("C=C1C(=O)O[C@H]2[C@H]1CC/C(COC(=O)c1cccc3ccccc13)=C\\CC[C@@]1(C)O[C@@H]21")
"label 1"
>>> class_name("Nc1nc(Cl)c2c(C(F)(F)F)cn(CC3CCNCC3)c2n1")
"label 0"
>>> class_name("CCCCNC(=O)Oc1ccc(/C(=C(/CC)Cc2ccccc2)c2ccc(OCCCN(C)C)cc2)cc1")
"label 0"
>>> class_name("COc1ccc(-c2cnc(-c3ccc(F)cc3)[nH]2)cc1")
"label 0"
>>> class_name("CCNc1cc(S(=O)(=O)O)ccc1C")
"label 0"

q: Which outcome did this test record for the compound O=C1CCC(c2c(O)cc(O)c3c(=O)c(O)c(-c4ccc(O)c(O)c4)oc23)N1 (stereo not given) ?
a: label 0

q: Which outcome did this test record for the compound Cc1cn([C@]2(CF)O[C@H](CO)C2C)c(=O)[nH]c1=O (stereo not given in full) ?
a: label 0

q: Which outcome did this test record for the compound `COc1ccc(-c2cc3ccc(N(C)C)cc3nc2N)c(F)c1` ?
a: label 0

q: Which outcome did this test record for the compound `COc1cc(C(=O)N2CCN(C(=O)c3cc(OC)c(OCc4ccccc4)cc3N)CC2)c(N)cc1OCc1ccccc1` ?
a: label 0

q: Which outcome did this test record for the compound `CC(=O)Nc1ccc(OC(=O)c2ccccc2O)cc1` ?
a: label 0

q: Which outcome did this test record for the compound `CC(=O)Oc1ccc(C(OC(C)=O)OC(C)=O)cc1` ?
a: label 0

q: Which outcome did this test record for the compound `NS(=O)(=O)c1ccc(Nc2nc(O)c(/C=C3\C=Nc4ccccc43)s2)cc1` ?
a: label 0

q: Which outcome did this test record for the compound `CCNC(=O)Oc1ccc(/C(=C(/CC)Cc2ccccc2)c2ccc(OCCN3CCOCC3)cc2)cc1` ?
a: label 0
